Assignment: determine reported pIC50 for the given compounds.
target: SARS-CoV-2 3CLpro (Severe acute respiratory syndrome coronavirus 2); assay: SARS-CoV-2 3CLpro inhibition assay, continuous fluorescence with FRET substrate UIVT3; assay type: biochemical; conditions: 10 min pre-incubation of enzyme with compound; read-out: SARS CoV-2 3CLpro IC50
Note on units: pIC50 is unitless, being -log10 of a concentration expressed in mol/L.

Which measured pIC50 value corresponds to `CC(=O)Nc1cccc(C(=O)Oc2cncc(Cl)c2)c1` ?
5.95

Which measured pIC50 value corresponds to `Cc1cccc(C(=O)Oc2cncc(Cl)c2)c1O` ?
6.19

Which measured pIC50 value corresponds to `Cc1ccc(O)c(C(=O)Oc2ccc(C)cc2C(=O)Oc2ccc(C)cc2C(=O)Oc2cncc(Cl)c2)c1` ?
5.43

Which measured pIC50 value corresponds to `Cc1ccc(C(=O)Oc2cc(C)ccc2C(=O)Oc2cncc(Cl)c2)c(O)c1` ?
5.85

Which measured pIC50 value corresponds to `COc1ccc2cc([C@H](C)C(=O)Oc3cncc(Cl)c3)ccc2c1` ?
6.17

Which measured pIC50 value corresponds to Cc1cccc(C(=O)Oc2c(C)cccc2C(=O)Oc2cncc(Cl)c2)c1O [Compound 13b] ?
5.31

Which measured pIC50 value corresponds to `O=C(Oc1cncc(Cl)c1)c1c(O)cccc1F` ?
3.97

Which measured pIC50 value corresponds to `COc1ccc2c(c1)c(CC(=O)Oc1cncc(Cl)c1)c(C)n2C(=O)c1ccc(Cl)cc1` ?
5.27

Which measured pIC50 value corresponds to `Cc1ccc(O)c(C(=O)Oc2ccc(C)cc2C(=O)Oc2cncc(Cl)c2)c1` ?
6.13

---

Assignment: determine reported EC50 for the given compounds.
tested on: SARS-CoV-2 strain JPN/TY/WK-521; experiment: Antiviral assay, quantitative VeroE6 cell-based assay with RNA-qPCR; conditions: Severe acute respiratory syndrome coronavirus 2, Vero C1008, 72 h, VeroE6 cells, RNA-qPCR, MOI 0.05, 72 h; read-out: SARS-CoV-2 EC50

Which measured EC50 value corresponds to `CC(=O)Nc1cc(C(=O)Oc2cncc(Cl)c2)ccc1F` ?
> 100 µM

Which measured EC50 value corresponds to `Cc1ccc(C(=O)Oc2cncc(Cl)c2)c(O)c1` ?
> 100 µM

Which measured EC50 value corresponds to `O=C(Oc1cncc(Cl)c1)c1c(O)cccc1F` ?
> 100 µM

Which measured EC50 value corresponds to Cc1ccc(O)c(C(=O)Oc2cncc(Cl)c2)c1 [Compound 15a] ?
24 to 64 µM

Which measured EC50 value corresponds to `Cc1cccc(O)c1C(=O)Oc1cccc(C)c1C(=O)Oc1cncc(Cl)c1` ?
> 100 µM

Which measured EC50 value corresponds to `Cc1cccc(C(=O)Oc2cncc(Cl)c2)c1O` ?
> 100 µM

Which measured EC50 value corresponds to `Cc1cccc(O)c1C(=O)Oc1cncc(Cl)c1` ?
> 100 µM

Which measured EC50 value corresponds to `Cc1ccc(C(=O)Oc2cc(C)ccc2C(=O)Oc2cncc(Cl)c2)c(O)c1` ?
> 100 µM

Which measured EC50 value corresponds to `COc1ccc2cc([C@H](C)C(=O)Oc3cncc(Cl)c3)ccc2c1` ?
> 100 µM

Which measured EC50 value corresponds to Cc1cccc(C(=O)Oc2c(C)cccc2C(=O)Oc2cncc(Cl)c2)c1O [Compound 13b] ?
24 µM

Which measured EC50 value corresponds to CC(C)Cc1ccc(C(C)C(=O)Oc2cncc(Cl)c2)cc1 (centres unmarked) ?
> 100 µM
